Hello, the source for this data is the supplement of paper PMC8728848, in case you need it.

Target: GlcNAc(b1-3)Gal(b1-4)GlcNAc(b1-6)[GlcNAc(b1-3)Gal(b1-3)]GalNAc
Experiment: glycan array binding signal (z-score within array); higher = stronger binding
Conditions: glycan notation: IUPAC condensed, linker removed
The sample as a whole holds a higher share of the strongest signals than the screen did.
Entries and their measured glycan array binding signal (z-score) follow.
// no unit string in output, number only

As a guide, the following entries are already answered.
| binder | glycan array binding signal (z-score) |
| --- | --- |
| SSR2 (Sclerotium rolfsii) (protein) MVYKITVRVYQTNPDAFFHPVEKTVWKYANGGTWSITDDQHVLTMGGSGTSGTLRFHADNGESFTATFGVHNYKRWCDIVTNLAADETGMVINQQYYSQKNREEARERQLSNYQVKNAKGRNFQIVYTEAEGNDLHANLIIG | 1.62 |
| LF82 (Escherichia coli) (protein) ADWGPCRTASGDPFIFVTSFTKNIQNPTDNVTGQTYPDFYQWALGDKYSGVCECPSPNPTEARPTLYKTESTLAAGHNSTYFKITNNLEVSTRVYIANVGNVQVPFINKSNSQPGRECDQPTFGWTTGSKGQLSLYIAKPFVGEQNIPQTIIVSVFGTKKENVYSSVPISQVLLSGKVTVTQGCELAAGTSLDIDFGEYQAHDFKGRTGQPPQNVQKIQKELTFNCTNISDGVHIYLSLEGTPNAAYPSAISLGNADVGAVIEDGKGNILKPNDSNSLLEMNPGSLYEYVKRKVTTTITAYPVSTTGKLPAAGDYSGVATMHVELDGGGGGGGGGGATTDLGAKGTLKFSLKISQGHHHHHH | 0.416 |
| Wzz (Escherichia coli) (protein) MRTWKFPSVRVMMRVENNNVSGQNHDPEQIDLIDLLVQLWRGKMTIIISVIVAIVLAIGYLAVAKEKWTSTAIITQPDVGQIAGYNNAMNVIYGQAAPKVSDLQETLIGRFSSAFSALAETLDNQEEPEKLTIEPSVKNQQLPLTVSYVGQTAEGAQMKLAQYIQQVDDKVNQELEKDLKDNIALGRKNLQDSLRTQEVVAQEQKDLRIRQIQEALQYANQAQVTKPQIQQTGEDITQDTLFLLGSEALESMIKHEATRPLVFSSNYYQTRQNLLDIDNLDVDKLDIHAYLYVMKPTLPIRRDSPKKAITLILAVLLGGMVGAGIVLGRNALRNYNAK | -0.084 |

stdin: What does the record list as glycan array binding signal (z-score) for Aap lectin (Staphylococcus epidermidis) (protein) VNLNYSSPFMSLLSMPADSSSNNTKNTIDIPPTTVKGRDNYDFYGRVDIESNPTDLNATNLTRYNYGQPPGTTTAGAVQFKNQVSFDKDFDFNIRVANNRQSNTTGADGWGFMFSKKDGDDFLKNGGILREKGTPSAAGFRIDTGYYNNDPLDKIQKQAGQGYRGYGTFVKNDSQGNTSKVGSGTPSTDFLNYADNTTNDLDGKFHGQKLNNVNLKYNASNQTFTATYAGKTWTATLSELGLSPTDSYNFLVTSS ?
stdout: -0.968
